Source of measurements: PubChem BioAssay (Tox21)

Assay: Nuclear factor erythroid 2-related factor 2/antioxidant responsive element (Nrf2/ARE) small molecule agonists: luciferase reporter gene qHTS assay in human keratinocytes (AID 1919969); note: nearly all actives have a fitted effect of over 35% in size
Details: KeratinoSens HaCaT ARE-luciferase, luminescence, 24 h; series mostly up to 92.4 µM
Results filed as inconclusive are left out. Active and inactive are the calls of the source. Calls come from the whole dose curve.
The reply should name one outcome from y for active, n for inactive

molecule | discreteLabel
COCCOC(=O)C1=C(C)NC(C)=C(C(=O)OC(C)C)C1c1cccc([N+](=O)[O-])c1 (configuration not stated) | n
Brc1c2ccccc2cc2ccccc12 | n

Continue with the molecule presented below.
Asked: What was the test verdict on "Nc1cnn([C@@H]2O[C@H](CO)[C@@H](O)[C@H]2O)c(=O)n1" ?
Given back: n

###

Target: 5-hydroxytryptamine receptor 2A (Homo sapiens)
Experiment: 5-hydroxytryptamine receptor 2A (HTR2A) small molecule antagonists, cell-based qHTS assay (AID 1963586); note: nearly all actives have a fitted effect of over 45% in size
Settings: HTR2A-CHO cells, DOI-induced calcium flux, fluorescence; series mostly up to 61.5 µM
Description: National Center for Advancing Translational Sciences [NCATS] Division of Preclinical Innovation [DPI] U.S. Environmental Protection Agency [EPA] National Institutes of Environmental Health Sciences [NIEHS] National Toxicology Program [NTP] […] HTR2A-CHO cells were dispensed at 2000 cells/3uL/well in 1536-well black-clear bottom plates using a Multidrop Dispenser. […] The fluorescence intensity in the plates was measured using FDSS 7000EX kinetic plate reader for 3 min at 1 sec intervals.
Records with an inconclusive call do not appear. The source made the active and inactive calls. Calls come from the whole dose curve.
The reply should name one outcome from class 1 for active, class 0 for inactive

Asked: What was the test verdict on CCCS(=O)c1ccc2nc(NC(=O)OC)[nH]c2c1 (stereo not drawn) ?
Given back: class 0

Asked: What was the test verdict on CN1Cc2cc(C(=O)N3CCC(C4CCNCC4)CC3)ccc2NC(CC(=O)O)C1=O (stereo not drawn) ?
Given back: class 0

###

Molecular target: Muscarinic acetylcholine receptor M1 (Homo sapiens)
Test: Cholinergic receptor muscarinic 1 (CHRM1) small molecule antagonists, cell-based qHTS assay (AID 1963588); note: nearly all actives have a fitted effect of over 40% in size
Details: CHRM1-CHO antagonist mode, calcium flux fluorescence; series mostly up to 61.5 µM
Results filed as inconclusive are left out. Active and inactive are the calls of the source. Calls follow the shape of the full dose curve.
endpointName: outcome

Here are 6 compounds together with their reported answers.
compound | outcome
CCCCCCCCCCCCCOP(=O)(O)O | inactive
COC(=O)C1=C(C)NC(C)=C(C(=O)OCCN2CCN(C(c3ccccc3)c3ccccc3)CC2)C1c1cccc([N+](=O)[O-])c1 (configuration not stated) | inactive
CC1(C)S[C@@H]2[C@H](NC(=O)C(c3ccccc3)S(=O)(=O)O)C(=O)N2[C@H]1C(=O)O (some centres not stated) | inactive
CC(=O)C1C(=O)C=C(C)OC1=O (configuration not stated) | inactive
O=C(O)c1cc(O)c2c(c1)C(=O)c1cccc(O)c1C2=O | inactive
C=CC(=O)OCCOC(=O)CCC(=O)O | inactive

Asked: What value of measured outcome is listed for "N#Cc1cscn1" ?
Given back: inactive

Asked: What value of measured outcome is listed for CC(O)c1ccccc1 (configuration not stated) ?
Given back: inactive

Asked: What value of measured outcome is listed for "COC(=O)c1ccccc1Cl" ?
Given back: inactive

Asked: What value of measured outcome is listed for "O=C(CCCCCCCCC#CI)Oc1ccccc1" ?
Given back: inactive

Asked: What value of measured outcome is listed for "CCCC(c1cc(C(C)(C)C)c(O)cc1C)c1cc(C(C)(C)C)c(O)cc1C" ?
Given back: inactive

Asked: What value of measured outcome is listed for O=C1OC(=O)C2CCCCC12 (configuration not stated) ?
Given back: inactive
